These data points were gathered from patent US20240067747A1.

Assign kon to each entry below.
Target: T1, Cynomolgus CD73 protein (Novoprotein, item No. CI21) (cynomolgus, UniProt A0A2K5V5U7 27-547)
T1 construct: Bought protein
T1 sequence: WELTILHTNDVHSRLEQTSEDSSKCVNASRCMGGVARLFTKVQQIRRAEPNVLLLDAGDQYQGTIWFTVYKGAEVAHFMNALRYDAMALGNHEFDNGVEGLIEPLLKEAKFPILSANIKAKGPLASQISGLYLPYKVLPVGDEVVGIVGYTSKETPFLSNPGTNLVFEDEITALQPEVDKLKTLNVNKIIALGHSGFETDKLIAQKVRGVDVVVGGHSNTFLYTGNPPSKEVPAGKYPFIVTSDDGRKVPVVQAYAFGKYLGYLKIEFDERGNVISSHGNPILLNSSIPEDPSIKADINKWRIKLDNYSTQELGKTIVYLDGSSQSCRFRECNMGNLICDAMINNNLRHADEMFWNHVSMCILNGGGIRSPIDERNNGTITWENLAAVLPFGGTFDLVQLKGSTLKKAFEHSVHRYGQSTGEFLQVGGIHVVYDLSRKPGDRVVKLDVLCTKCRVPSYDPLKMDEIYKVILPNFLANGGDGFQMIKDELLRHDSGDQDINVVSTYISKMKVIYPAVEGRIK
Experiment: SPR, Biacore T200, antibody captured on protein A chip, cynomolgus CD73 as analyte, 1:1 model
Numbers only, in M⁻¹ s⁻¹.

Worked set:
900726 (humanized anti-CD73 antigen-binding protein) (antibody, V domains shown) VH: QVQLVQSGAEVKKPGASVKLSCKASGYTFTSYWIHWVRQAPGQGLEWIGMIHPNSGSTYYNEKFKGRATLTVDKSTSTAYMELSSLRSEDTAVYYCARYYGSDYEWYFDVWGQGTTVTVSS VL: DIQMTQSPSSLSASVGDRVTITCKASQNVRTAVVWYQQKPGKAPKALIYLASNRHTGVPDRFSGSGSGTDFTLTISSLQPEDFATYYCLQHWNYPYTFGQGTKLEIK
1.6e+06
900727 (humanized anti-CD73 antigen-binding protein) (antibody, V domains shown) VH: QVQLVQSGAEVKKPGASVKVSCKASGYTFTSYWIHWVRQAPGQGLEWIGMIHPNSGSTYYAQKFQGRVTITVDKSTSTAYMELSSLRSEDTAVYYCARYYGSDYEWYFDVWGQGTTVTVSS VL: DIQMTQSPSSMSASVGDRVTITCKASQNVRTAVVWYQQKPGKAPKALIYLASNRHTGVPDRFSGSGSGTDFTLTISSLQPEDFATYFCLQHWNYPYTFGQGTKLEIK
927000

Batch lookup, kon per entry.
1. 900728 (humanized anti-CD73 antigen-binding protein) (antibody, V domains shown) VH: QVQLVQSGAEVKKPGASVKVSCKASGYTFTSYWIHWVRQAPGQGLEWIGMIHPNSGSTYYNEKFQGRVTMTVDKSTSTAYMELSSLRSEDTAVYYCARYYGSDYEWYFDVWGQGTTVTVSS VL: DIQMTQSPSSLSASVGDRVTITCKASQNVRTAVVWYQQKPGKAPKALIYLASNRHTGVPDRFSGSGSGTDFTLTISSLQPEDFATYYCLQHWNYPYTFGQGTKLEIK
2. 900725 (humanized anti-CD73 antigen-binding protein) (antibody, V domains shown) VH: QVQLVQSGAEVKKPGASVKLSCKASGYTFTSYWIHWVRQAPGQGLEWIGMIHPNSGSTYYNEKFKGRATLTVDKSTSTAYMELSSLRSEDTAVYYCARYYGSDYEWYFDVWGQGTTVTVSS VL: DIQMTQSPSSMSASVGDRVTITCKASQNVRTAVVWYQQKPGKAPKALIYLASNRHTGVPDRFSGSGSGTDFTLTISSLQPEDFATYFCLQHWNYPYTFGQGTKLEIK
3. 900567 (human-mouse chimeric anti-CD73 antigen-binding protein expressed from 124A9 variable regions) (antibody, V domains shown) VH: QVQLQQPGAELVKPGASVKLSCKASGYTFTSYWIHWVKQRPGQGLDWIGMIHPNSGSTYYNEKFKSKATLTVDKSSSTAYMQLSSLTSEDSAVYYCARYYGSDYEWYFDVWGTGTTVTVSS VL: DIVMTQSQKFMSTSVGDRVSITCKASQNVRTAVVWYQQNPGQSPKALIYLASNRHTGVPDRFTGSGSGTDFTLTISNVHSEDLADYFCLQHWNYPYTFGGGTKLEIK

// result
678000
425000
855000
